- Target Of Assay: Thromboxane-A synthase (Homo sapiens, UniProt P24557)
- Sequence (P24557 whole entry): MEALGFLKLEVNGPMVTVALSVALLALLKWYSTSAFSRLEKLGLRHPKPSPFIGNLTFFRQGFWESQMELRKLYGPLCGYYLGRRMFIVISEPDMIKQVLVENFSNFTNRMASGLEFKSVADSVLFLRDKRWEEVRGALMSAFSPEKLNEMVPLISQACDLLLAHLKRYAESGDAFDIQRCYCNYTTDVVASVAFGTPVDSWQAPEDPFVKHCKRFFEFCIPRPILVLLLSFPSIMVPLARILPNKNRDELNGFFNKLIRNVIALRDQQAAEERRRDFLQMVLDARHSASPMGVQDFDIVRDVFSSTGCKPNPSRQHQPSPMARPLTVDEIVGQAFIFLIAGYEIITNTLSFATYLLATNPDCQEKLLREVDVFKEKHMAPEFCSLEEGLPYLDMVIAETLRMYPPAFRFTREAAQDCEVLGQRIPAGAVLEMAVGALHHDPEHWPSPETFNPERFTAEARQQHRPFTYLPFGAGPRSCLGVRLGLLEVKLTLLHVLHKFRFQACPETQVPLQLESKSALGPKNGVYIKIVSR
- Assay Procedure: In vitro inhibition of thromboxane A2 synthetase from human platelets.
pIC50: −log10 of the molar value.
Value Kind: pIC50

(I) NC(=O)CCCCCc1cccc2cncn12
(II) Cc1ncc2cccc(CCCCCC(=O)O)n12
Of the two listed items, I and II , which carries the larger pIC50 figure? Select an item and report its label.
I

----------
- Assay Procedure: Partition coefficient (logP)
- Type: physicochemical
- Condition Set: octanol/water
Value Kind: logP

O=C(O)CCCCCCc1cccc2cncn12: 1.54

(A) O=C(O)CCCCCCCc1cccc2cncn12
(B) O=C(O)CCCCCc1cccc2cncn12
(C) O=C(O)CCCCc1cccc2cncn12
Give the ascending ranking of the items by reported logP. Write the labels out in the order the request specifies.
C, B, A
(C: 0.7, B: 1.1, A: 2.01)

----------
- Target Of Assay: Thromboxane-A synthase (Homo sapiens, UniProt P24557)
- Assay Procedure: In vitro inhibition of thromboxane A2 synthetase from human platelets.
Value Kind: IC50 (nM)

Observe how each entry below is paired with its result.
c1cc(CCCCCc2nnn[nH]2)n2cncc2c1: 19
CCOC(=O)CCCCCc1cccc2cncn12: 330
O=C(O)/C=C/C=C/c1cccc2cncn12: 28

(P) O=C(O)CCCCCCCc1cccc2cncn12
(Q) O=C(O)CCCCc1ccn2cncc2c1
(R) N#CCCCCCc1cccc2cncn12
Give the ascending ranking of the items by reported IC50. Write the labels out in the order the request specifies.
P, R, Q

(P) CCCCCCCc1cccc2cncn12
(Q) CNC(=O)CCCCCc1cccc2cncn12
Lab note: check whether P or Q has the lower measured IC50. Select an item and report its label.
Q
(Q: 270 nM, P: 3300 nM)

(I) O=C(CCCCCc1cccc2cncn12)NO
(II) O=C(O)CCCCc1cccn2cncc12
(III) c1cc(CCCCc2nnn[nH]2)n2cncc2c1
(IV) O=C(O)CCCCCCc1cccc2cncn12
(V) O=C(O)CCCCc1cccc2cncn12
Kindly order the items shown according to IC50, from the highest value down. Write the labels out in the order the request specifies.
II, V, I, III, IV
(II: 390 nM, V: 41 nM, I: 20 nM, III: 11 nM, IV: 5.2 nM)

(I) OCCCCCCc1cccc2cncn12
(II) CN(C)C(=O)CCCCCc1cccc2cncn12
Of the two listed items, I and II , which carries the larger IC50 figure? Select an item and report its label.
II

----------
- Target Of Assay: Thromboxane-A synthase (Homo sapiens, UniProt P24557)
- Assay Procedure: In vitro inhibitory activity against thromboxane A2 synthetase with lysed human platelets as the enzyme source.
Value Kind: IC50 (nM)
Response body: numeric value in nM, unit text excluded.

Can you look up the measured IC50 of "O=C(O)CCCCCc1cccc2cncn12" for me?
3.2

----------
- Target Of Assay: Thromboxane-A synthase (Homo sapiens, UniProt P24557)
- Assay Procedure: In vitro inhibition of thromboxane A2 synthetase from human platelets.
Value Kind: IC50 (nM)

(A) C/C(=C\CCCCCc1cccc2cncn12)C(=O)O
(B) O=C(O)/C=C/CCCCCc1cccc2cncn12
(C) O=C(O)/C=C/CCCc1cccc2cncn12
(D) O=C(O)CCCCc1ccc2cncn2c1
Form: Sort by [IC50] Order [ ascending ] Write the labels out in the order the request specifies.
C, A, B, D

Values were extracted from ChEMBL document CHEMBL1122885.
